// reported IC50 per item
tested-system: human alpha2C receptors (Homo sapiens, UniProt P18825)
Construct: host or cells: Chinese hamster ovary (CHO) cells, cotransfected with pCEP-Gα16
protocol-notes: Determination of alpha2C antagonistic activity in vitro (intracellular calcium, FLIPR Calcium 3)
Type: cell-based
condition-notes: CHO cells stably transfected with human alpha2C receptor and Gα16; stimulated with 100 nM adrenaline or 200 nM noradrenaline; 37° C.; read-out: IC50/nM Alpha2C
Respond numerically; units are nM and should not be typed.

Solved entries:
- compound: "COCc1ccccc1N1CCN(C[C@H]2COc3ccccc3O2)CC1 [Example 17]"
  unit-abbrev: "nM"
  IC50: 8.2
- compound: "COCc1ccccc1N1CCN(C[C@@H]2COc3ccccc3O2)CC1 [Example 18]"
  unit-abbrev: "nM"
  IC50: 134
- compound: "c1coc(-c2ccccc2N2CCN(C[C@H]3COc4ccccc4O3)CC2)c1 [Example 29]"
  unit-abbrev: "nM"
  IC50: 18

Can you look up the measured IC50 of COC(=O)c1ccccc1N1CCCN(CC2COc3ccccc3O2)CC1 (centres unmarked) [Example 36] for me?
13.7

Query (compound): OCc1c(F)cccc1N1CCN(CC2COc3ccccc3O2)CC1 (centres unmarked) [Example 23] ; field requested: IC50
30.6

---

tested-system: human alpha2C receptors (Homo sapiens)
Construct: host or cells: Chinese hamster ovary (CHO) cells, cotransfected with pCEP-Gα16
Sequence (P18825 1-462): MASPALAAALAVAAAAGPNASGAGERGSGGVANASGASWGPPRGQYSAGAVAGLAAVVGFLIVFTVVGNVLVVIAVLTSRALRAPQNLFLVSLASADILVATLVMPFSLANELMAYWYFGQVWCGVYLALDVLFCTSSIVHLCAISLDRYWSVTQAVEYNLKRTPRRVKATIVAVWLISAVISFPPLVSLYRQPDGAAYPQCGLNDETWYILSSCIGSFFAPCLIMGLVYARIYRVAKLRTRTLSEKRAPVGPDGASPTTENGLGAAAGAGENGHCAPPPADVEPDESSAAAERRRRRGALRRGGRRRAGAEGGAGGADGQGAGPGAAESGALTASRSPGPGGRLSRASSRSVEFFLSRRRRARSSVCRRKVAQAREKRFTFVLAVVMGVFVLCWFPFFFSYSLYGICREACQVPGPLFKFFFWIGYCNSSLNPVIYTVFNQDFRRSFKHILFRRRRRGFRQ
protocol-notes: Determination of alpha2C antagonistic activity in vitro (intracellular calcium, FLIPR Calcium 3)
Assay type: cell-based
measurement-kind: pIC50
Please keep in mind that pIC50 is minus log10 of the molar concentration; only the number is needed.

What does the data say about its pIC50? Entry: `Cc1ccccc1N1CCN(C[C@H]2COc3ccccc3O2)CC1`
7.75

---

tested-system: human alpha2A receptors (Homo sapiens, UniProt P08913)
Construct: host or cells: Chinese hamster ovary (CHO) cells, cotransfected with pCEP-Gα16
Sequence (P08913 whole entry): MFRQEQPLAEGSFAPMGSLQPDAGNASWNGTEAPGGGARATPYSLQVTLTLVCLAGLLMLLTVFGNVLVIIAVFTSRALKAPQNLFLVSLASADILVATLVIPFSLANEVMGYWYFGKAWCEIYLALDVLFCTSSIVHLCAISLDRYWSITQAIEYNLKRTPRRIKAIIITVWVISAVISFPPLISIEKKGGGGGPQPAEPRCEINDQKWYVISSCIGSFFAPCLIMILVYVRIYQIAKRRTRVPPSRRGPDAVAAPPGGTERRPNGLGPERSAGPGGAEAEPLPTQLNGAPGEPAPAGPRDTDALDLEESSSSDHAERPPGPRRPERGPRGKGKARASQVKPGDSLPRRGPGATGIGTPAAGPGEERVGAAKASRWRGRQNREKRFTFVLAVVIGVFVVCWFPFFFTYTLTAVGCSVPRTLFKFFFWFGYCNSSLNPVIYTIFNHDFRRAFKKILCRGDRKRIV
protocol-notes: Determination of alpha2A antagonistic activity in vitro (intracellular calcium, FLIPR Calcium 3)
Format: cell-based
condition-notes: CHO cells stably transfected with human alpha2A receptor and Gα16; stimulated with 100 nM adrenaline or 200 nM noradrenaline; 37° C.
Overview of reported log10(IC50) across a group of compounds:
A value of 2 here means IC50 of 100 in nM, since values are log10.

- compound: "COC(=O)c1ccccc1N1CCCN(CC2COc3ccccc3O2)CC1 (stereo not drawn)"
  tested-system: "human alpha2A receptors (Homo sapiens, UniProt P08913)"
  log10(IC50): 3.59
- compound: "OCc1c(F)cccc1N1CCN(CC2COc3ccccc3O2)CC1 (stereo not drawn)"
  tested-system: "human alpha2A receptors (Homo sapiens, UniProt P08913)"
  log10(IC50): 4.03

May I ask what log10(IC50) has been recorded for `Cc1ccccc1N1CCN(C[C@H]2COc3ccccc3O2)CC1` ?
4.23

For `COCc1ccccc1N1CCN(C[C@@H]2COc3ccccc3O2)CC1` , what is its reported log10(IC50)?
4.61

# lookup: log10(IC50) of `COCc1ccccc1N1CCN(C[C@H]2COc3ccccc3O2)CC1`
3.34

For the compound shown here, `c1coc(-c2ccccc2N2CCN(C[C@H]3COc4ccccc4O3)CC2)c1` , give the reported log10(IC50).
4.10
